Value source: paper PMC12133982

target: HLA-B1502 (Homo sapiens, UniProt P01889, A329T/A93T/A95T/C349S/D201E/D98Y/E187L/E204Q/E69M/E70A/H137Y/K202T/L119I/Q94N/R155S/R180L/S121R/S35A/S48A/T118I/V306I/V36M/Y140S/Y91S); experiment: Competitive peptide binding assay, CIR-B1502; conditions: HMy2.CIR-B1502 cells, reference Cy5-[…], class from inhibition at 5 and 15 μM, flow cytometry MFI; read-out: Binding affinity with HLA-B1502
pIC50: −log10 of the molar value. Peptide text beside a SMILES is read from it.
METRIC: pIC50

{"COMPOUND": "CC[C@H](C)[C@H](NC(=O)[C@H](Cc1ccc(O)cc1)NC(=O)[C@H](CCC(N)=O)NC(=O)[C@H](CCC(=O)O)NC(=O)[C@@H](N)Cc1ccc(O)cc1)C(=O)N[C@@H](CCCCN)C(=O)N[C@@H](Cc1c[nH]c2ccccc12)C(=O)N1CCC[C@H]1C(=O)N[C@@H](Cc1c[nH]c2ccccc12)C(=O)O [Epitope Y230] (H-YEQYIKWPW-OH; N-terminus and C-terminus assumed)", "pIC50": "< 4.82"}

Returns the measured pIC50 for the input compound. Input: CC(C)C[C@H](NC(=O)[C@@H](N)CCC(N)=O)C(=O)N[C@H](C(=O)N1CCC[C@H]1C(=O)N[C@H](C(=O)N[C@@H](Cc1c[nH]c2ccccc12)C(=O)N[C@@H](CCCNC(=N)N)C(=O)N[C@H](C(=O)N[C@@H](Cc1ccc(O)cc1)C(=O)O)C(C)C)[C@@H](C)O)[C@@H](C)O [Epitope Y175] (H-QLTPTWRVY-OH; N-terminus and C-terminus assumed)
4.82 to 5.30

Returns the measured pIC50 for the input compound. Input: CC(C)[C@H](NC(=O)[C@@H](NC(=O)[C@@H](N)Cc1ccccc1)C(C)C)C(=O)N[C@@H](CO)C(=O)N[C@H](C(=O)NCC(=O)N[C@@H](Cc1ccc(O)cc1)C(=O)N[C@@H](Cc1c[nH]cn1)C(=O)N[C@@H](Cc1ccccc1)C(=O)O)[C@@H](C)O [Epitope Y167] (H-FVVSTGYHF-OH; N-terminus and C-terminus assumed)
4.82 to 5.30

Returns the measured pIC50 for the input compound. Input: CC[C@H](C)[C@H](NC(=O)[C@@H](NC(=O)[C@H](CC(N)=O)NC(=O)[C@H](CCCNC(=N)N)NC(=O)[C@H](CCCCN)NC(=O)[C@@H](NC(=O)[C@H](Cc1ccc(O)cc1)NC(=O)[C@H](C)NC(=O)[C@@H](N)Cc1ccccc1)[C@@H](C)O)C(C)C)C(=O)O [Epitope Y276] (H-FAYTKRNVI-OH; N-terminus and C-terminus assumed)
< 4.82

Returns the measured pIC50 for the input compound. Input: CC(C)[C@H](NC(=O)[C@@H](N)Cc1ccccc1)C(=O)N[C@@H](CO)C(=O)N[C@@H](CC(N)=O)C(=O)NCC(=O)N[C@H](C(=O)N[C@@H](Cc1c[nH]cn1)C(=O)N[C@@H](Cc1c[nH]c2ccccc12)C(=O)N[C@@H](Cc1ccccc1)C(=O)O)[C@@H](C)O [Epitope Y250] (H-FVSNGTHWF-OH; N-terminus and C-terminus assumed)
< 4.82

Returns the measured pIC50 for the input compound. Input: CC(C)[C@H](NC(=O)CNC(=O)[C@H](Cc1c[nH]cn1)NC(=O)[C@@H]1CCCN1C(=O)[C@H](C)NC(=O)[C@H](CO)NC(=O)[C@H](CCC(N)=O)NC(=O)[C@@H]1CCCN1C(=O)[C@@H](N)Cc1ccccc1)C(=O)O [Epitope Y281] (H-FPQSAPHGV-OH; N-terminus and C-terminus assumed)
< 4.82
